- Tested on: T-cell
- assay.overview: IL-2 secretion from T-cells co-stimulated with anti-CD3 and anti-CD28 antibody (Biological Example 2)
- Format: cell-based, human
- conditions: Homo sapiens, T-cell, 0.3 μM Cbl-b inhibitor; fold change over baseline (anti-CD3/anti-CD28 stimulated T-cells without inhibitor); read-out: IL-2 secretion Anti-CD3/Anti-CD28 stimulation
value.kind: fold induction at 0.3 µM

Consider the reported fold induction at 0.3 µM for these molecules:
CCN1CCN(Cc2cc3c(c(C(F)(F)F)c2)CN(c2cccc(C4(Cc5nncn5C)COC4)c2)C3=O)CC1 [Example 624]; 5 to 7.5
Cn1cnnc1CC1(c2cccc(N3Cc4c(ccnc4C(F)(F)F)C3=O)c2)COC1 [Example 696]; 1.01 to 2.5
CN1C[C@H]2C[C@@H]1CN2c1cc2c(c(C(F)(F)F)c1)CN(c1cccc([C@@](C)(F)C(F)(F)c3nncn3C)c1)C2=O [Example 562]; 5 to 7.5

Each molecule below has a recorded value; state its fold induction at 0.3 µM.
1. C[C@H](c1cc2c(c(C(F)(F)F)c1)CN(c1cccc(C3(Cc4nncn4C)COC3)c1)C2=O)N1CC(F)C1 [Example 668a]
2. Cn1cnnc1CC1(c2cccc(N3Cc4c(cc(N5CC(C(F)F)C5)cc4C(F)(F)F)C3=O)c2)COC1 [Example 594]

a:
2.51 to 5
2.51 to 5

Okay, here is my list. What is fold induction at 0.3 µM for each of these?
1. Cn1cnnc1CC1(c2cccc(N3Cc4c(ccc(F)c4C4CC4)C3=O)c2)COC1 [Example 577]
2. COc1cccc2c1CN(Cc1cc3c(c(C(F)(F)F)c1)CN(c1cccc(C4(Cc5nncn5C)COC4)c1)C3=O)C2 [Example 702]

a:
1: 1.01 to 2.5; 2: 5 to 7.5

###

- target.under.test: Cbl-b (Homo sapiens, UniProt Q13191)
- Sequence (Q13191 36-427): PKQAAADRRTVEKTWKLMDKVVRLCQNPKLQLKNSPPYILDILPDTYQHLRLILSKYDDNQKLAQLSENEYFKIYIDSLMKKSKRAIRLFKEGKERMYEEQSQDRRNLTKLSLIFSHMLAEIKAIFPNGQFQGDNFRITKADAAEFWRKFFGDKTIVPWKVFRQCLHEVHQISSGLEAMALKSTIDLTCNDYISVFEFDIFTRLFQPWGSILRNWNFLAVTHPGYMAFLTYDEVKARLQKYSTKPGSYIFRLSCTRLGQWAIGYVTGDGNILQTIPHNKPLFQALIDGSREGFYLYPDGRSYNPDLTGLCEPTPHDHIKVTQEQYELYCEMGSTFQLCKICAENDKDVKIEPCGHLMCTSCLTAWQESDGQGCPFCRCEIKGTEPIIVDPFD
- assay.overview: Cbl-b activity assay (Cbl-b inhibition assay), TR-FRET of Cbl-b interaction with UbcH5B-Ub
- Format: biochemical
- conditions: assay buffer with 100 mM NaCl, 60 nM Src kinase; read-out: Cbl-b activity IC50
Would you kindly list IC50 for each of these compounds?

Cc1nc(C(=O)Nc2cccc([C@H](C)Sc3nncn3C)c2)cs1; 1000 to 3000 nM
C[C@H](Sc1nncn1C)c1ccnc(NC(=O)c2ccc3c(n2)CCCC3)c1; 1000 to 3000 nM
C[C@H](Cc1nncn1C)c1cccc(NC(=O)c2cccc(S(C)(=O)=O)n2)c1; 301 to 1000 nM
C[C@H](Cc1nncn1C)c1ccnc(NC(=O)c2cccc(C(F)(F)F)n2)c1; 301 to 1000 nM
Cn1cnnc1CC1(c2cccc(N3Cc4c(cc(CN5CC6CC(C5)C6(F)F)cc4C(F)(F)F)C3=O)c2)COC1; < 100 nM
Cc1cc(C(=O)Nc2cccc(C3([C@@H](F)c4nncn4C)COC3)c2)nc(C2CC2)n1 [Example 669b]; < 100 nM
Cn1cnnc1CC1(c2cccc(N3Cc4c(cc(CN5CC(F)C5(C)C)cc4C(F)(F)F)C3=O)c2)COC1 (stereo not drawn); < 100 nM
COC[C@@H]1CN(Cc2cc3c(c(C(F)(F)F)c2)CN(c2cccc(C4(Cc5nncn5C)COC4)c2)C3=O)CCO1; < 100 nM

Batch: IC50 for all items listed.
1. Cn1cnnc1CC1(c2cccc(NC(=O)c3cc(CN4CC[C@H](F)C4)nc(C4CC4)n3)c2)COC1
2. C[C@H](c1cc2c(c(C(F)(F)F)c1)CN(c1cccc(C3(Cc4nncn4C)COC3)c1)C2=O)N1CCC(F)(F)C1
3. CN1CC2CCC1CN2c1cc2c(c(C(F)(F)F)c1)CN(c1cccc(C3(Cc4nncn4C)COC3)c1)C2=O (stereo not drawn)

a:
< 100 nM
< 100 nM
< 100 nM

###

- System: primary human total T-cells
- assay.overview: T-cell activation assessed by CD69 expression
- Format: cell-based
- conditions: CD3/CD28 stimulation, CD4 T-cells, 10 μM, read-out: % CD69+ (CD4)
Give fold induction at 10 µM for every item shown.

Required: fold induction at 10 µM, one value per compound below.
1. Cc1n[nH]c(C)c1-c1cc2c(c(C(F)(F)F)c1)CN(c1cccc(C3(Cc4nncn4C)COC3)c1)C2=O
2. C[C@H](Cc1nncn1C)c1cccc(NC(=O)c2cc3cc(N4CCNCC4)ccc3cn2)c1
3. Cn1cnnc1[C@@H]1C[C@@H]1c1cccc(N2Cc3c(ccnc3C(F)(F)F)C2=O)c1
4. Cn1cnnc1CC1(c2cccc(NC(=O)c3nc4c(C(F)(F)F)cccc4[nH]3)c2)COC1
5. C[C@H](Cc1nncn1C)c1cccc(NC(=O)c2cccc(CCO)n2)c1
6. Cn1cnnc1C(F)(F)[C@](C)(F)c1cccc(N2Cc3c(cc(CN4CC[C@@H](C#N)C4)cc3C(F)(F)F)C2=O)c1

a:
["1.4 to 1.6", "1.4 to 1.6", "1.4 to 1.6", "> 1.6", "1.2 to 1.4", "1.4 to 1.6"]

###

Assign pIC50 to each entry below.
- target.under.test: Cbl-b (Homo sapiens)
- assay.overview: Cbl-b inhibition assay (Cbl-b activity assay, FRET, Biological Example 1; 100 mM NaCl, 60 nM Src kinase)
- Assay type: biochemical
- conditions: upper bound stated in text lists; read-out: IC50 values in the Cbl-b inhibition assay of Biological Example 1
pIC50: −log10 of the molar value.

For orientation, consider the following solved cases.
Cn1cnnc1CC(c1cccc(N2Cc3c(cccc3C(F)(F)F)C2=O)c1)C(F)(F)F (stereo not shown); ≥ 6.30
Cn1cnnc1C(F)(F)[C@](C)(F)c1cccc(N2Cc3c(cc(CN4CC(C(F)F)C4)cc3C(F)(F)F)C2=O)c1; ≥ 7.00
C[C@H](Cc1nncn1C)c1cccc(NC(=O)c2cc(C(=O)N3C[C@@H](F)[C@@H](O)C3)ccn2)c1; ≥ 5.00
CNc1cccc(C(=O)Nc2cccc([C@H](C)Sc3nncn3C)c2)c1; ≥ 5.00

Below is a list of molecules. For each, state its recorded pIC50.
1. C[C@H](Cc1nncn1C)c1cccc(NC(=O)c2nc3c(C4CC4)cccc3[nH]2)c1
2. Cn1cnnc1CC1(c2cccc(N3Cc4c(cc(CN5Cc6cccc(C#N)c6C5)cc4C(F)(F)F)C3=O)c2)COC1
3. COc1cc(C(=O)Nc2cccc([C@H](C)Sc3nncn3C)c2)nc(C(F)(F)F)c1

a:
≥ 6.52
≥ 7.00
≥ 6.30

###

- Test system: T-cell
- assay.overview: CD25 cell surface staining on T-cells stimulated with anti-CD3 antibody alone (Biological Example 2)
- Format: cell-based, human
- conditions: T-cell; fold change over baseline; 8 μM Cbl-b inhibitor; primary human total T-cells; read-out: CD25 staining Anti-CD3 stimulation
Record form. Attribute: fold induction at 8 µM. Fill in for each entry.

Please give fold induction at 8 µM, item by item, for the list that follows.
1. C[C@H](Cc1nncn1C)c1cccc(NC(=O)c2cc(C3(O)COC3)cc(C(F)(F)F)n2)c1
2. Cn1cnnc1CC1(c2cccc(N3Cc4c(cccc4C(F)(F)F)C3=O)c2)CC1
3. Cc1ccc(C(=O)Nc2cccc([C@H](C)Sc3nncn3C)c2)nc1C
4. C[C@H](Sc1nncn1C)c1cccc(NC(=O)c2cc(C(=O)N3C[C@H](O)C[C@@H]3C)ccn2)c1
5. C[C@H](Cc1nncn1C)c1cccc(NC(=O)c2cc3cccn3cn2)c1

a:
1: > 1; 2: > 1; 3: 0.601 to 0.8; 4: 0.601 to 0.8; 5: 0.801 to 1

Quick request: fold induction at 8 µM for each listed item, please.
1. Cn1cnnc1CC1(c2cccc(NC(=O)c3cc(C4CC4)nc(C(F)(F)F)n3)c2)COC1
2. C[C@H](Sc1nncn1C)c1cccc(NC(=O)c2ccnc(C3CC3)n2)c1
3. C[C@H](Cc1nncn1C)c1cccc(NC(=O)c2cc(C(=O)N3CC[C@H](O)C3)cc(C(F)(F)F)n2)c1
4. C[C@H](Sc1nncn1C)c1ccnc(NC(=O)c2cc(C3CC3)cc(C(F)(F)F)n2)c1
5. C[C@H](Sc1nncn1C)c1cccc(NC(=O)c2ccc(Cl)c(C(F)(F)F)n2)c1

a:
["> 1", "> 1", "> 1", "0.801 to 1", "> 1"]

###

- Test system: T-cell
- assay.overview: IL-2 secretion from T-cells co-stimulated with anti-CD3 and anti-CD28 antibody (Biological Example 2)
- Type: cell-based, human
- conditions: Homo sapiens, T-cell, fold change over baseline; 1 μM Cbl-b inhibitor; primary human total T-cells; read-out: IL-2 secretion Anti-CD3/Anti-CD28 stimulation
value.kind: fold induction at 1 µM

Give measured fold induction at 1 µM for every item shown.
1. C[C@H](Sc1nncn1C)c1cccc(NC(=O)c2cc(C3(O)COC3)cc(C(F)(F)F)n2)c1 [Compound 84]
2. Cn1cnnc1C(F)(F)[C@](C)(F)c1cccc(NC(=O)c2nc3c(C(F)(F)F)cccc3[nH]2)c1 [Compound 345]
3. Cc1cc(C(=O)Nc2cccc(C3(Cc4nncn4C)COC3)c2)nc(C2CCC2)n1 [Compound 340]
4. C[C@H](Cc1nncn1C)c1cc(OC2COC2)nc(N2Cc3c(cccc3C(F)(F)F)C2=O)c1 [Compound 354]

a:
< 1
1.01 to 2.5
5 to 7.5
1.01 to 2.5

List fold induction at 1 µM for every entry below, keeping the order given.
1. CC(=O)N1CCN(c2ccc3cnc(C(=O)Nc4cccc([C@H](C)Cc5nncn5C)c4)cc3c2)CC1 [Compound 211, 2,2,2-trifluoroacetate]
2. C[C@H](Cc1nnc[nH]1)c1cccc(N2Cc3c(cccc3C(F)(F)F)C2=O)c1 [Compound 262]
3. C[C@H](Cc1nncn1C)c1cccc(N2Cc3c(cccc3C(F)(F)F)C2=O)c1 [Compound 255a]

a:
1: 5 to 7.5; 2: < 1; 3: 2.51 to 5
